# Test name: Luminescence activity assay of purified Gaussia luciferase mutants on coelenterazine
# Type: biochemical
# Parameters: key: ratio of mutant luminescence intensity to wild-type Gaussia luciferase
# Stated conditions: Substrate CTZ (Table 16)
Reported property: Activity of mutant relative to wild-type Gaussia luciferase without the signal peptide
Give bare numbers.

{"Molecule": "F26Y N27Y V29A A30G S33V A36V T37S L40G: Gaussia luciferase mutant (protein, SIGNAL (1)..(17), Gaussia luciferase mutant) MGVKVLFALICIAVAEAKPTENNEDYYIAGVAVNFVSTDGDADRGKLPGKKLPLEVLKEMEANARKAGCTRGCLICLSHIKCTPKMKKFIPGRCHTYEGDKESAQGGIGEAIVDIPEIPGFKDLEPMEQFIAQVDLCVDCTTGCLKGLANVQCSDLLKKWLPQRCATFASKIQGQVDKIKGAGGD", "Value": 0.219}

[Q] Supply reported Activity of mutant relative to wild-type Gaussia luciferase without the signal peptide belonging to this molecule: N27D V29S V31L A32V S33G A36N T37D L40R: Gaussia luciferase mutant (protein, SIGNAL (1)..(17), Gaussia luciferase mutant) MGVKVLFALICIAVAEAKPTENNEDFDISALVGNFNDTDRDADRGKLPGKKLPLEVLKEMEANARKAGCTRGCLICLSHIKCTPKMKKFIPGRCHTYEGDKESAQGGIGEAIVDIPEIPGFKDLEPMEQFIAQVDLCVDCTTGCLKGLANVQCSDLLKKWLPQRCATFASKIQGQVDKIKGAGGD
[A] 0.981
